All values here come from PubChem BioAssay (NCI).

Tested on: EKVX NSCLC
ASSAY PROTOCOL: NCI-60 one-dose screen, 48 h (100 = growth as untreated, 0 = no growth, -100 = all killed)
APPLIED CONDITIONS: 10 µM unless noted
This is part of a sample that, as a whole, favours compounds with a hit. Of some 83,000 tested, about 20% had one in any assay.
QUANTITY NAME: growth (%)
Report the figure in % without appending any unit label.

The cases that follow already have their growth on record.
COMPOUND | UNIT NAME | growth
COc1ccc(/C(C)=C(\c2ccc(OCCN3CCOCC3)cc2)c2ccc(OC(=O)C3CCCCC3)cc2)cc1 | % | 107
CCOC(=O)c1nnn(Cc2cc(=O)oc3c2ccc2ccccc23)c1C | % | 105
NC(=O)c1c(NC(=O)/C=C/c2cccs2)sc2c1CCC(=O)C2 | % | 40.4
O=C(NNc1ccccc1)C1CCCN1 (stereo not given) | % | 69.4
CONC1=Nc2cc(NC(N)=NCc3ccccc3)c(N(C)C3CCCCC3)cc2OC1 | % | 62
COc1ccc(/C=N/C2=C(C#N)C(c3ccccc3)c3c(ccc4ccccc34)O2)cc1 (stereo not given) | % | 32.7
C[N+]1=C(/C=C\C=C\c2ccccc2)C(C)(C)c2ccccc21 | % | 31.5
COc1ccc(C/C(C)=C(\c2ccc(O)cc2)c2ccc(OCCCN(C)C)cc2)cc1 | % | 98.2

Supply growth value. Item: CC(=O)N1N=C(c2ccc(Nc3nc(Nc4ccc(F)cc4)nc(Nc4ccc(F)cc4)n3)cc2)CC1c1ccccc1 (stereo not given)
105

Supply growth value. Item: `CC/C(=C(/c1ccc(O)cc1)c1ccc(OCCN2CCCCCC2)cc1)c1ccc(Cl)cc1`
91.9

###

System: SK-MEL-2 melanoma
ASSAY PROTOCOL: NCI-60 one-dose screen, 48 h (100 = growth as untreated, 0 = no growth, -100 = all killed)
APPLIED CONDITIONS: 10 µM unless noted
The panel holds about 83,000 compounds, 20% with a hit somewhere; the sample as a whole holds those more often. Activity calls are given as the source filed them. How the source made its calls: active means growth percent below 10; inactive means the rest.
QUANTITY NAME: growth

Supply growth value. Item: `COc1cc(CNC(=O)CCCC/C=C/C(C)C)ccc1OCc1cn(-c2ccc([N+](=O)[O-])cc2)nn1`
92% (inactive)

Supply growth value. Item: `O=C(Nc1ncc(Cc2cccc(C(F)(F)F)c2)s1)c1ccc(-n2cnnn2)cc1`
89.4% (inactive)

Supply growth value. Item: `COc1ccc(Nc2ncnc3ccc(-c4cncc(NS(C)(=O)=O)c4)cc23)cc1Cl`
-4.48% (active)

Supply growth value. Item: `[2H]C([2H])([2H])Oc1cc(F)ccc1/C=C/C(=O)/C=C(/C=C/c1ccc(F)cc1OC([2H])([2H])[2H])OB(F)F`
48% (inactive)

Supply growth value. Item: `Cc1cccc(-c2nnc(SCC(=O)Nc3ncc(Cc4ccccc4)s3)n2N2C(=O)CSC2=S)c1`
75.6% (inactive)

Supply growth value. Item: `Nc1ccc(-c2nc3ccc4[nH]ncc4c3c3c2CCCC3)cc1F`
6.74% (active)

Supply growth value. Item: `Cc1ccc(-c2nc([P+](c3ccccc3)(c3ccccc3)c3ccccc3)c(Nc3ccccc3)o2)cc1`
-58.8% (active)

###

Test system: NCI-H460 lung
ASSAY PROTOCOL: NCI-60 one-dose screen, 48 h
APPLIED CONDITIONS: 10 µM unless noted
About 83,000 compounds went through this panel and 20% of them were active in at least one assay; those are over-represented in the sample as a whole. The source made the active and inactive calls. The calls were made as follows: active = growth percent below 10; inactive = the rest.
Thanks in advance; please answer with one of these: active, inactive

MOLECULE | LABEL VALUE
CCN(C(=O)N1CCN(c2cc3c(cc2F)c(=O)c(C(=O)O)cn3C2CC2)CC1)c1nc(-c2ccccc2)cs1 | active
COc1ccc2nc3cc(Cl)ccc3c(NCCCNCCC(C)O)c2c1 (stereo not given) | active
COc1cc(/C=N/NC(=O)CCN2c3ccccc3Sc3ccccc32)cc(OC)c1OC | inactive

Lab log entry: O=C(NNc1ccccc1)C1CCCN1 (stereo not given) — outcome as called in the assay?
inactive

Lab log entry: `CCCNNC(=O)/C=C/c1ccc(CNCCc2c(C)[nH]c3ccccc23)cc1` — outcome as called in the assay?
inactive
